The reported measurements were obtained from patent US20150065472A1.

Biological target: human androgen receptor (hAR) (Homo sapiens)
Sequence (P10275 1-920): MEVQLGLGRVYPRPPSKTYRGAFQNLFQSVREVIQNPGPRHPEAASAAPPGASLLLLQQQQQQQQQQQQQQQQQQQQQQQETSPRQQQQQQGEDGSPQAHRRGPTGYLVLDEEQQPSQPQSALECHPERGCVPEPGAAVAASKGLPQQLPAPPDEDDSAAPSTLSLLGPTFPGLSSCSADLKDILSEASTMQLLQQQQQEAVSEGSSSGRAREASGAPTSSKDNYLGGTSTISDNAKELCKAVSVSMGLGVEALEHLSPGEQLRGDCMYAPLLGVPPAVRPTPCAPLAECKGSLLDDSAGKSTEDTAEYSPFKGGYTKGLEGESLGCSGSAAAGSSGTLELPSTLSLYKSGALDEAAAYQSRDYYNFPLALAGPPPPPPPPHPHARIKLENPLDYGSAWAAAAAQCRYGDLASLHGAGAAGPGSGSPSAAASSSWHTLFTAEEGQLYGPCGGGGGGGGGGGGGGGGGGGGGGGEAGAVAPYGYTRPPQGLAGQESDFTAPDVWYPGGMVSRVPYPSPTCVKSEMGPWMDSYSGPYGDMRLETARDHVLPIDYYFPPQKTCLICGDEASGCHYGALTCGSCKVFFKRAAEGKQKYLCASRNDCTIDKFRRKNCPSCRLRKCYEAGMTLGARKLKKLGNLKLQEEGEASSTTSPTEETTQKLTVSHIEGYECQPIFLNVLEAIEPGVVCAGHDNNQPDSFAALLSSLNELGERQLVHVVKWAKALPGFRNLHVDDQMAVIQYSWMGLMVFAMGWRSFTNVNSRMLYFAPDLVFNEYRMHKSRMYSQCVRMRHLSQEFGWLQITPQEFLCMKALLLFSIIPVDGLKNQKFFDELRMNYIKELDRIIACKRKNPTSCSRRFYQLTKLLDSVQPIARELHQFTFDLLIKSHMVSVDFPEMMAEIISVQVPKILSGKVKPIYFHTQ
Test: hAR transactivation in PC3 cells stably transfected with hAR and MTV-luc reporter gene
Conditions: MTV-luc reporter
reported_property: pEC50
Note on units: pEC50 is unitless, being -log10 of a concentration expressed in mol/L.

input: Report pEC50 for CC[C@]12CCC3C4CCC(=O)C=C4[C@H]4C[C@H]4C3C1[C@@H]1C[C@@H]1[C@@]21CCCO1 (some centres unmarked) [compound B]
output: 7.25

input: Report pEC50 for CC[C@]12CCC3C4CCC(=O)C=C4CCC3C1[C@@H]1C[C@@H]1[C@@]21CCCO1 (some centres unmarked) [compound A]
output: 8.16
